Data provenance is patent US20170145113A1.

The reader will find reported kon values listed item by item below.
Biological target: T1, His-tagged human HtrA1 protease domain (human, UniProt Q92743 161-367)
T1 construct: His-tagged protease domain; also called huHtrA1-PD-His; huHtrA1-PD
T1 sequence (Q92743 other isoform, or with tags, fused parts or gaps limits assumed): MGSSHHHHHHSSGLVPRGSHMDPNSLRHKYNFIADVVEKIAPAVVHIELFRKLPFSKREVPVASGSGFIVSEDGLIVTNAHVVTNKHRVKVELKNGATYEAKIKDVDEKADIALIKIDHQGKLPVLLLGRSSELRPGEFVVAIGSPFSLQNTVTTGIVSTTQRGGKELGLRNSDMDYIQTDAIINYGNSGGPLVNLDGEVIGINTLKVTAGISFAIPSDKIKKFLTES
Experiment: SPR (BIACORE T200), huHtrA1-PD-His captured by anti-His, Fab injected
Procedure: To determine the binding affinity of selected Fab variants for HtrA1, SPR measurement with a BIACORE™ T200 instrument was performed. […] The sensorgram was recorded and subject to reference and buffer subtraction before evaluating by BIACORE® T200 Evaluation Software (version 2.0). Association rates (kₒₙ) and dissociation rates (koff) were calculated using a simple one-to-one Langmuir binding model. The equilibrium dissociation constant (KD) was calculated as the ratio of koff/kₒₙ.

BINDER	kon / M⁻¹ s⁻¹
h15H6.v2 variant HC1 (HC-T30K) Fab (Fab, V domains shown, Fab-Flag tag fusion from 293T cells) VH: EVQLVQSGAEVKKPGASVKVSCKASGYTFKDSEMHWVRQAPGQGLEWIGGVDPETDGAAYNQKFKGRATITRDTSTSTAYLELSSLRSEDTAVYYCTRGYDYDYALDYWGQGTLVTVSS VL: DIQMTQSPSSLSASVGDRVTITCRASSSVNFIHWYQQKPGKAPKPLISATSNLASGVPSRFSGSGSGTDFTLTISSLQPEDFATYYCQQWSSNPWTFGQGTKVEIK	347000
h15H6.v2 variant HC8 (HC-Y100I) Fab (Fab, V domains shown, Fab-Flag tag fusion from 293T cells) VH: EVQLVQSGAEVKKPGASVKVSCKASGYTFTDSEMHWVRQAPGQGLEWIGGVDPETDGAAYNQKFKGRATITRDTSTSTAYLELSSLRSEDTAVYYCTRGYDYDIALDYWGQGTLVTVSS VL: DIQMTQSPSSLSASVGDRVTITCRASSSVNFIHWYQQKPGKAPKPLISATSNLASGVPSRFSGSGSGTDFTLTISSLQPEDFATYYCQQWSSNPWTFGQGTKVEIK	393000
h15H6.v2 variant HC9 (HC-A100aP) Fab (Fab, V domains shown, Fab-Flag tag fusion from 293T cells) VH: EVQLVQSGAEVKKPGASVKVSCKASGYTFTDSEMHWVRQAPGQGLEWIGGVDPETDGAAYNQKFKGRATITRDTSTSTAYLELSSLRSEDTAVYYCTRGYDYDYPLDYWGQGTLVTVSS VL: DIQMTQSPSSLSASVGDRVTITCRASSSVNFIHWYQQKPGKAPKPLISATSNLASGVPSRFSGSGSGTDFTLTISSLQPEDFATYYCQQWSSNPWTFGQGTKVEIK	340000
